# Assay Procedure: Cell Viability - LYMP2-020 (AID 986);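 also: cells exposed to compound for 24 h at 37 °C; nearly all actives have a fitted effect of over 55% in size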
# Particulars: series mostly up to 92.2 µM
Results filed as inconclusive are left out. Calls of active or inactive are those of the source. Calls follow the shape of the dose curve; as a rule, active = well fitted cell-killing curve with a large enough effect; inconclusive = small, poorly fitted or top-dose-only effect; inactive = flat fitted curve, though single readings scatter.
Log the outcome using a class from 1 for active, -1 for inactive

O=Cc1ccco1
-1

## Task Field: outcome | Entry: [Cl-].[Cl-].[Hg+2]
## Result 1

## Task Entry CCOC(=O)c1ccccc1C(=O)OCC : call = ?
## Result -1

## Task Query: recorded result category for O=[N+]([O-])c1ccccc1 in this test
## Result -1

## Task # lookup: test call for O=C1CCO1
## Result -1

## Task What call does the record list for C=CCN=C=S ?
## Result -1

## Task What outcome does the record of this test show for CC(C)Nc1ccc(Nc2ccccc2)cc1 ?
## Result 1

## Task Would you mind telling me which call this test gave CCCCCCCCOC(=O)c1ccccc1C(=O)OCCCCCCCC ?
## Result -1

## Task Per the assay record, what outcome was assigned to C[C@H]1CCC[C@H](O)CCCCCc2cc(O)cc(O)c2C(=O)O1 ?
## Result -1

## Task What was the test verdict on [O]=[Cd] ?
## Result -1

----------
# Tested on: CP250
# Assay Procedure: qHTS profiling for inhibitors of Plasmodium falciparum proliferation (AID 504749); also: nearly all actives have a fitted effect of over 60% in size
# Particulars: P. falciparum in erythrocytes, SYBR Green DNA, 72 h; series mostly up to 28.7 µM
Results filed as inconclusive are left out. Active and inactive are the calls of the source. Calls come from the whole dose curve; as a rule, active = well fitted inhibition curve with a large enough effect; inconclusive = small, poorly fitted or top-dose-only effect; inactive = flat fitted curve, though single readings scatter.
I would appreciate it if you answered using one of these outcomes: YES (active), NO (inactive)

Would you please look over these solved cases?
Clc1ccc(C2(Cn3cncn3)OCCO2)c(Cl)c1
NO
CCC1(c2ccccc2)C(=O)NC(=O)N(C(=O)c2ccccc2)C1=O (centres undefined)
NO
CC(C)CCON=O
NO
c1ccc2sc(SNC3CCCCC3)nc2c1
NO
O=S(=O)(O)c1cc(O)ccc1O
NO

## Task What outcome does the record of this test show for O[C@H]1[C@H]2[C@H](O)CCCN2C[C@H]1O ?
## Result NO

## Task Which outcome was entered for the compound C[CH2][Hg][S]c1ccccc1C(=O)O in this test?
## Result YES

## Task What classification did O=C1CN(O)C(c2ccccc2)=c2cc(Cl)ccc2=N1 end up with in this test?
## Result NO

## Task // param item: OC(c1ccccc1)(c1ccccc1)C1CN2CCC1CC2 (centres undefined) ; yields the recorded call
## Result NO

## Task Hey, what did the test say about [O]=[Cr](=[O])([OH])[O][Cr](=[O])(=[O])[OH] ?
## Result NO

## Task Please let me know the test result on file for O=C(CCl)c1ccc(Oc2ccc(C(=O)CCl)cc2)cc1 .
## Result NO

## Task Could you kindly confirm the outcome this assay logged for O=C(OCCN1CCCCC1)C(O)(c1ccccc1)c1ccccc1 ?
## Result NO

## Task Hey, what did the test say about Clc1ccccc1Cl ?
## Result NO

## Task Please state the recorded outcome for this compound: FC(F)OC(F)(F)C(F)Cl (centres undefined)
## Result NO

## Task So what was the verdict on CCC(=O)O[C@@](Cc1ccccc1)(c1ccccc1)[C@@H](C)CN(C)C in this test?
## Result NO

----------
# System Name: Vitamin D3 receptor (Homo sapiens)
# Assay Procedure: qHTS assay for small molecule antagonists of vitamin D receptor signaling (AID 588541)
# Particulars: HEK293T VDR-UAS-bla, beta-lactamase ratio, antagonist mode; series mostly up to 76.7 µM
# From the text: NIH Chemical Genomics Center [NCGC] U.S. Environmental Protection Agency [EPA] National Institutes of Environmental Health Sciences [NIEHS] National Toxicology Program [NTP] The Vitamin D receptor (VDR) is a member of nuclear hormone receptor superfamily and it plays a critical role in calcium homeostasis and bone metabolism. It plays a role in inducing cell differentiation, inhibiting cell growth and in thrombogenicity. […] 9. Detection; Fluorescence; Envision plate reader
Results filed as inconclusive are left out. The source made the active and inactive calls. Calls come from the whole dose curve.
Hi there, use one of these labels in your reply, thanks! active, inactive

NNC(N)=O
inactive
O=C1CCO1
inactive
CCOP(=O)(OCC)O/C(=C/Cl)c1ccc(Cl)cc1Cl
inactive

## Task // param item: N#CN ; yields the recorded call
## Result inactive

## Task Query: recorded result category for O=C(O)c1cc[c]([Hg][Cl])cc1 in this test
## Result active

## Task Hi, do you know how ClCC1CO1 (configuration not stated) came out in this test?
## Result inactive

## Task Could you check what this test reported for C=CCN=C=S ?
## Result inactive
